Each recorded value in this set is attributed to patent US6265423A.

Test system: human mammary tumoral lineage T-47D
protocol details: Clonogenic test (soft agar), growth of cellular colonies
Assay type: cell-based
run conditions: Homo sapiens, T47D, 504 h; T-47D, 10^-7 M, 21 days, control = 100%; read-out: mean number of cellular colonies in relation to control
metric: activity at 0.1 µM (%)
Report only the number, with the unit % understood.

molecule	unit spec	activity at 0.1 µM
C/C(=C/c1ccc2c(c1)C(C)(C)CCC2(C)C)c1ccc(C(=O)O)cn1	%	11.6
C/C(=C/c1ccc2c(c1)C(C)(C)CCC2(C)C)c1ccc(C(=O)O)nc1	%	102
CC1=C(/C=C/C(C)=C/C=C/C(C)=C/C(=O)Nc2ccc(O)cc2)C(C)(C)CCC1 [CB05764, reference compound]	%	18.8
CC/C(=C(\c1ccccc1)c1ccc(OCCN(C)C)cc1)c1ccccc1 [CB58707, tamoxifen, reference compound]	%	31.3
C/C(=C/c1ccc2c(c1)C(C)(C)CCC2(C)C)c1ccc(C(=O)O)cc1 [CB28628, reference compound]	%	21.4

Continue with the molecule presented below.
Identify measured activity at 0.1 µM obtained with human mammary tumoral lineage T-47D for CC(C=C/C=C(C)\C=C\C1=C(C)CCCC1(C)C)=CC(=O)O [CB13407, 9-cis retinoic acid, reference compound] .
6.7

* * *

Test system: ZR-75-1 human mammary cancer cells
protocol details: MTT test, proliferation of ZR-75-1
Assay type: cell-based
run conditions: Homo sapiens; ZR-75-1, 10^-6 M, 72 h, control = 100%; read-out: level of proliferation
metric: activity at 1 µM (%)
Return type: number; implicit unit %.

Past entries and their recorded results:
molecule	activity at 1 µM (%)
Cc1cc2c(cc1C(=O)c1ccc(C(=O)Nc3ccc(O)cc3)cc1)C(C)(C)CCC2(C)C	134
C/C(=C\c1ccc(C(=O)O)cc1)c1ccc2c(c1)C(C)(C)CCC2(C)C [TTNPB, reference compound]	69.8
C/C(=C/c1ccc2c(c1)C(C)(C)CCS2(=O)=O)c1ccc(C(=O)O)cc1	138
C/C(=C\c1cc2c(cc1C)C(C)(C)CCC2(C)C)c1ccc(C(=O)O)cc1	96
Cc1cc2c(cc1/C=C(\c1ccc(-c3nnn[nH]3)cc1)C(F)(F)F)C(C)(C)CCC2(C)C	106

Return value of activity at 1 µM for input C/C(=C\c1cc2c(cc1C)C(C)(C)CCC2(C)C)c1ccc(-c2nnn[nH]2)cc1 , no commentary.
107

Supply activity at 1 µM value. Item: C/C(=C\c1ccc2c(c1)C(C)(C)CCS2(=O)=O)c1ccc(C(=O)O)cc1
148

Quickly give me recorded activity at 1 µM for CC1(C)CCC(C)(C)c2cc(/C=C(\c3ccc(-c4nnn[nH]4)cc3)C(F)(F)F)ccc21
96.6

* * *

System: RARα-ERcassette
protocol details: Transactivation, chimerical receptor RARα-ERcassette (HeLa)
Type: cell-based
run conditions: 10^-6 M; TTNPB 10^-8 M = 100
Answer false (0) if RAR-ERcassette RARα transactivation is under 90%, and true (1) if it is 90% or more.

Sample answers from the record:
compound	class
Cc1cc2c(cc1C(=O)c1ccc(C(=O)O)cc1)C(C)(C)CCC2(C)C [LGD-CB14499, reference compound]	false (0)
C/C(=C/c1ccc2c(c1)C(C)(C)CCC2(C)C)c1ccc(C(=O)O)s1	true (1)
C/C(=C\c1ccc2c(c1)C(C)(C)CCC2(C)C)c1ccc(C(=O)O)cc1 [CB24159, reference compound]	true (1)

Given CC1(C)CCC(C)(C)c2cc(/C=C(\c3ccc(-c4nnn[nH]4)cc3)C(F)(F)F)ccc21 , state whether its RAR-ERcassette RARα transactivation is at least 90%.
false (0)

Quick check, RAR-ERcassette RARα transactivation >= 90%? CC1=C(/C=C/C(C)=C/C=C/C(C)=C/C(=O)O)C(C)(C)CCC1 [CB16178, all-trans retinoic acid, reference compound]
true (1)

Hi team, for C/C(=C\c1ccc2c(c1)C(C)(C)CCC2(C)C)c1cc(C(=O)O)no1 , is the recorded RAR-ERcassette RARα transactivation at or above 90%?
false (0)

Could you tell me if the measured RAR-ERcassette RARα transactivation of C/C(=C/c1ccc2c(c1)C(C)(C)CCC2(C)C)c1ccc(C(=O)O)nc1 reaches 90% or more?
false (0)

Textbook exercise: given the entry C/C(=C/c1ccc2c(c1)C(C)(C)CCC2(C)C)c1ccc(C(=O)O)cn1 , state whether its RAR-ERcassette RARα transactivation is greater than or equal to 90%.
false (0)
